Molecular target: T1, Hexokinase II (HK-II), purified (UniProt P52789 1-917, fluorescently labeled using the NanoTemper protein-labeling Kit BLUE)
T1 construct: hexokinase II (HK-II)
T1 sequence (looked up): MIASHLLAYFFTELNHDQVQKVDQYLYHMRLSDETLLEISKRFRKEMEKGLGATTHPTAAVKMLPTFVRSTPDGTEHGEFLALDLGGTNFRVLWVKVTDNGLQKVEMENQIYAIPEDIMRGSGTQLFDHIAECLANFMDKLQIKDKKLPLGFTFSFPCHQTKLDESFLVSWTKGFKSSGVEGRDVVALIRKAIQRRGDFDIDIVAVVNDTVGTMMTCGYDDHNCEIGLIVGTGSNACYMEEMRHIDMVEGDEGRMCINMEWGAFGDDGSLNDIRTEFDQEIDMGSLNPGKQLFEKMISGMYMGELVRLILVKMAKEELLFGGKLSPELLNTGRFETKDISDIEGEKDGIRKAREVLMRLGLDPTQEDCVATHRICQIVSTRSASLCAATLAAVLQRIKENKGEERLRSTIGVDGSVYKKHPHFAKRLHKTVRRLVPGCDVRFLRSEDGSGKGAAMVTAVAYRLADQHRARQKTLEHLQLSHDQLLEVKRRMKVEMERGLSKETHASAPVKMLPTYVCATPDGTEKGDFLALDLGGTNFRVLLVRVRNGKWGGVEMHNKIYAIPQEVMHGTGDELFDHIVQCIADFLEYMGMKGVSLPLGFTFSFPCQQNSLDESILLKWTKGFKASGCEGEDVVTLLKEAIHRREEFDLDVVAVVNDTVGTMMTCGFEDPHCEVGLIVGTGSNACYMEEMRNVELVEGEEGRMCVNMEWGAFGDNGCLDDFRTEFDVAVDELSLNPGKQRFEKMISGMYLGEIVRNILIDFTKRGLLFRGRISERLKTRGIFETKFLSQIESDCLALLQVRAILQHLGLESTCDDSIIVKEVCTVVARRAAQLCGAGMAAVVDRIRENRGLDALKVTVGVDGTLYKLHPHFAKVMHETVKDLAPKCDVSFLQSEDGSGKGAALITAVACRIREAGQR
Assay: MST; HK-II (100 nM), fluorescently labelled (NanoTemper Kit BLUE), incubated with Tf-D-LP4 (1-100 μM) for 20 min; MST-grade glass capillaries, Monolith-NT115
Details: both partners purified
Non-standard residues stand in square brackets, D forms with d. No end group written: not given here.
result-type: Kd (µM)
Give the value in µM but do not write µM after it.

Input HAIYPRHSWTWE[dK][dK][dL][dE][dT][dA][dV][dN][dL][dA][dW][dT][dA]G[dN][dS][dN]KWTWK (L-amino acids; amino acids added to form a loop-shaped tryptophan zipper (N-terminal half); amino acids added to form a loop-shaped tryptophan zipper (C-terminal half); 34 residues in all; the VDAC1-derived stretch is made of D-amino acids, the rest of L-amino acids; also called VDAC1-based peptide; Tf-D-LP4 peptide; source: synthetic peptide (GL Biochem, Shanghai, >95% purity), dissolved in DMSO) [Tf-D-LP4] . Output Kd: 16.6

Reference source for all entries: paper PMC5458211
